- protocol: physchem
- condition context: octanol/water, pH 11
- Description: Octanol/water partition coefficient, log D of the compound at pH 11
measured property: logD

compound | logD
CN=S(=O)(c1ccc(C(F)(F)F)cc1)N(C)C (stereo not given) | 2.9

Exam item: # return recorded logD for entry CCOP(C)(=O)c1ccncc1 (stereo not given)
Marked response: -0.7

Exam item: # return recorded logD for entry `Cc1ccc(NC(=O)c2ccc(P(C)(=O)O)cc2)cc1Nc1nccc(-c2cccnc2)n1`
Marked response: -0.6

Exam item: # return recorded logD for entry `CP(=O)(O)c1ccc(C(F)(F)F)cc1`
Marked response: -1.3

Exam item: # return recorded logD for entry `O=P1(c2ccc(C(F)(F)F)cc2)CCC1`
Marked response: 1.6

Exam item: # return recorded logD for entry CN1CCCOP1(=O)c1ccc(C(F)(F)F)cc1 (stereo not given)
Marked response: 1.9

Exam item: # return recorded logD for entry `COP(=O)(OC)c1ccc(C(F)(F)F)cc1`
Marked response: 2.2

Exam item: # return recorded logD for entry `O=P1(c2ccc(C(F)(F)F)cc2)CCNCC1`
Marked response: 0.5

Exam item: # return recorded logD for entry O=P1(c2ccc(C(F)(F)F)cc2)NCCCO1 (stereo not given)
Marked response: 1.3

Exam item: # return recorded logD for entry `CCOP(=O)(OCC)c1ccc(C(=O)Nc2ccc(C)c(Nc3nccc(-c4cccnc4)n3)c2)cc1`
Marked response: 2.8

Exam item: # return recorded logD for entry `O=P(O)(O)c1ccc(C(F)(F)F)cc1`
Marked response: < -1.6

Exam item: # return recorded logD for entry `Cc1ccc(NC(=O)c2ccc(C(N)=O)cc2)cc1Nc1nccc(-c2cccnc2)n1`
Marked response: 1.5

Exam item: # return recorded logD for entry C[S+]([O-])c1ccc(C(F)(F)F)cc1 (stereo not given)
Marked response: 1.4
